Sourced from paper PMC4724192

Target: 0P-ERK2 (Rattus norvegicus, UniProt P63086)
Sequence (P63086 whole entry): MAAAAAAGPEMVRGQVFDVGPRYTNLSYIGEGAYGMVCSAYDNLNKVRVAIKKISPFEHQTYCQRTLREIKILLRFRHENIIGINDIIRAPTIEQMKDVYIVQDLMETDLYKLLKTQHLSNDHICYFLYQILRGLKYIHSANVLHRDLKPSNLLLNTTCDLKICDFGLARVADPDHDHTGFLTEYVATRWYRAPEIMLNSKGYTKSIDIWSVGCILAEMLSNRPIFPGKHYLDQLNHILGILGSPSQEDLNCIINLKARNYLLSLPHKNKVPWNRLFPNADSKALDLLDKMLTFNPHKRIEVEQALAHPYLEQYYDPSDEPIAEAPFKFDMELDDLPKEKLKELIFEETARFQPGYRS
MEASUREMENT_KIND: Ki
Be sure to follow the number with its unit.

Q: Lab note: need Ki for O=C(Nc1ccc2[nH]nc(-c3ccncc3)c2c1)[C@@H]1CCN(CC(=O)N2CCN(c3ccc(-c4ncccn4)cc3)CC2)C1 on 0P-ERK2 (Rattus norvegicus, UniProt P63086), anyone have it?
Result: 120 pM

---

Biological target: 2P-ERK2 (Rattus norvegicus)
Sequence (P63086 whole entry): as above
Experiment: Morrison titration experiment for tight-binding inhibitors
Assay type: biochemical
MEASUREMENT_KIND: pKi
pKi is a log-scale quantity: -log10 of the concentration expressed in molar.

Q: For the compound shown here, O=C(Nc1ccc2[nH]nc(-c3ccncc3)c2c1)[C@@H]1CCN(CC(=O)N2CCN(c3ccc(-c4ncccn4)cc3)CC2)C1 , give the reported pKi.
Result: 9.92
